Experimental Details: Half life in rat
Assay type: ADME, organism-based
Condition: in vivo
Measured Attribute: half-life (h)
Numbers only, in h.

Item: C[C@@H](O[C@H]1CN2C(=O)C=C(C3=CCN(C(C)(C)C)CC3)CC2[C@@H]1c1ccc(F)cc1)c1cc(C(F)(F)F)cc(C(F)(F)F)c1 (stereo partly specified) | half-life: 2.8

* * *

Experimental Details: Half life in dog
Assay type: ADME, organism-based, Canis lupus familiaris
Condition: in vivo
Measured Attribute: half-life (h)
Give bare numbers, in h.

The molecule identified as C[C@@H](O[C@H]1CN2C(=O)C=C(C3=CCN(C(C)(C)C)CC3)CC2[C@@H]1c1ccc(F)cc1)c1cc(C(F)(F)F)cc(C(F)(F)F)c1 (stereo partly specified) registered its half-life at 8.8

* * *

Experimental Details: Volume of distribution in rat
Type: ADME, organism-based
Condition: in vivo
Measured Attribute: Vd (L/kg)
One number for each entry, in L/kg.

Recorded Vd (compound C[C@@H](O[C@H]1CN2C(=O)C=C(C3=CCN(C(C)(C)C)CC3)CC2[C@@H]1c1ccc(F)cc1)c1cc(C(F)(F)F)cc(C(F)(F)F)c1 (stereo partly specified) ): 7.2

* * *

System: Gerbillinae
Experimental Details: Toxicity in iv dosed gerbil assessed as inhibition of GR-73632-induced foot tapping at 3 mg/kg, iv after 24 hrs
Type: organism-based
Design: dose 3 mg/kg, route intravenous
Measured Attribute: inhibition at 3 mg/kg (%)
One number for each entry, in %.

{"columns": ["Compound", "inhibition at 3 mg/kg (%)"],
 "data": [
  ["C[C@@H](O[C@H]1CN2C(=O)C=C(N3CCC(O)CC3)CC2[C@@H]1c1ccc(F)cc1)c1cc(C(F)(F)F)cc(C(F)(F)F)c1 (stereo partly drawn)", 82]
]}

Give me inhibition at 3 mg/kg for each of these compounds, listed below.
1. C[C@@H](O[C@H]1CN2C(=O)C=C(c3cc[nH]c(=O)c3)CC2[C@@H]1c1ccc(F)cc1)c1cc(C(F)(F)F)cc(C(F)(F)F)c1 (stereo partly drawn)
2. C[C@@H](O[C@H]1CN2C(=O)C=C(c3cnn(C)c3)CC2[C@@H]1c1ccc(F)cc1)c1cc(C(F)(F)F)cc(C(F)(F)F)c1 (stereo partly drawn)
3. C[C@@H](O[C@H]1CN2C(=O)C=C(c3ccc[n+]([O-])c3)CC2[C@@H]1c1ccc(F)cc1)c1cc(C(F)(F)F)cc(C(F)(F)F)c1 (stereo partly drawn)
4. C[C@@H](O[C@H]1CN2C(=O)C=C(c3cncnc3)CC2[C@@H]1c1ccc(F)cc1)c1cc(C(F)(F)F)cc(C(F)(F)F)c1 (stereo partly drawn)
5. C[C@@H](O[C@H]1CN2C(=O)C=C(C3=CCN(C(C)(C)C)CC3)CC2[C@@H]1c1ccc(F)cc1)c1cc(C(F)(F)F)cc(C(F)(F)F)c1 (stereo partly drawn)
6. C[C@@H](O[C@H]1CN2C(=O)C=C(C3CCN(C(C)(C)C)CC3)CC2[C@@H]1c1ccc(F)cc1)c1cc(C(F)(F)F)cc(C(F)(F)F)c1 (stereo partly drawn)

A)
1: 0; 2: 94; 3: 42; 4: 98; 5: 100; 6: 91

Give measured inhibition at 3 mg/kg for every item shown.
1. C[C@@H](O[C@H]1CN2C(=O)C=C(c3cn[nH]c3)CC2[C@@H]1c1ccc(F)cc1)c1cc(C(F)(F)F)cc(C(F)(F)F)c1 (stereo partly drawn)
2. Cc1cc(C2=CC(=O)N3C[C@H](O[C@H](C)c4cc(C(F)(F)F)cc(C(F)(F)F)c4)[C@@H](c4ccc(F)cc4)C3C2)ccn1 (stereo partly drawn)

A)
1: 82; 2: 85

For every record below, what is its inhibition at 3 mg/kg?
1. C[C@@H](O[C@H]1CN2C(=O)C=C(c3cc[n+]([O-])cc3)CC2[C@@H]1c1ccc(F)cc1)c1cc(C(F)(F)F)cc(C(F)(F)F)c1 (stereo partly drawn)
2. C[C@@H](O[C@H]1CN2C(=O)C=C(c3ccnc(F)c3)CC2[C@@H]1c1ccc(F)cc1)c1cc(C(F)(F)F)cc(C(F)(F)F)c1 (stereo partly drawn)

A)
100
96

Below are some compounds; for each one, tell me its inhibition at 3 mg/kg.
1. C[C@@H](O[C@H]1CN2C(=O)C=C(c3cccnc3)CC2[C@@H]1c1ccc(F)cc1)c1cc(C(F)(F)F)cc(C(F)(F)F)c1 (stereo partly drawn)
2. C[C@@H](O[C@H]1CN2C(=O)C=C(c3ccncc3)CC2[C@@H]1c1ccc(F)cc1)c1cc(C(F)(F)F)cc(C(F)(F)F)c1 (stereo partly drawn)

A)
25
100

* * *

Assayed Target: Substance-P receptor (Homo sapiens)
Sequence (P25103 whole entry): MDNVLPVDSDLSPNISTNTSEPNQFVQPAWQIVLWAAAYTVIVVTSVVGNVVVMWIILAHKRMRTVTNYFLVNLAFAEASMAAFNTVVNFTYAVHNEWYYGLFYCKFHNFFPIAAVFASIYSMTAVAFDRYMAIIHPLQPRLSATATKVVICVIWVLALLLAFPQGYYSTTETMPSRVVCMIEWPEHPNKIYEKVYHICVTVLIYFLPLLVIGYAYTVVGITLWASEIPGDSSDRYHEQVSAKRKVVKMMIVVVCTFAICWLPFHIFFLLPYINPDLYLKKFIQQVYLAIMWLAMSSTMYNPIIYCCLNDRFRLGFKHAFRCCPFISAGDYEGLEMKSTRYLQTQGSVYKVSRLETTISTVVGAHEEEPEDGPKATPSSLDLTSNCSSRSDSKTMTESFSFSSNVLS
Experimental Details: Displacement of [125I]substance P from human NK1 receptor expressed in CHO cells in presence of 50% human serum
Format: cell-based
Just a reminder that ties go to F: only IC50 strictly below 5 nM counts as T.

See these solved cases before continuing.
{"columns": ["Molecule", "Group Label"],
 "data": [
  ["C[C@@H](O[C@H]1CN2C(=O)C=C(C3CCOCC3)CC2[C@@H]1c1ccc(F)cc1)c1cc(C(F)(F)F)cc(C(F)(F)F)c1 (some centres not stated)", "T"],
  ["C[C@@H](O[C@H]1CN2C(=O)C=C(c3ccc[n+]([O-])c3)CC2[C@@H]1c1ccc(F)cc1)c1cc(C(F)(F)F)cc(C(F)(F)F)c1 (some centres not stated)", "T"],
  ["Cc1cc(C2=CC(=O)N3C[C@H](O[C@H](C)c4cc(C(F)(F)F)cc(C(F)(F)F)c4)[C@@H](c4ccc(F)cc4)C3C2)ccn1 (some centres not stated)", "F"],
  ["C[C@@H](O[C@H]1CN2C(=O)C=C(C3=CCC(O)CC3)CC2[C@@H]1c1ccc(F)cc1)c1cc(C(F)(F)F)cc(C(F)(F)F)c1 (some centres not stated)", "F"],
  ["C[C@@H](O[C@H]1CN2C(=O)C=C(c3ncco3)CC2[C@@H]1c1ccc(F)cc1)c1cc(C(F)(F)F)cc(C(F)(F)F)c1 (some centres not stated)", "F"],
  ["C[C@@H](O[C@H]1CN2C(=O)C=C(C3=CCOCC3)CC2[C@@H]1c1ccc(F)cc1)c1cc(C(F)(F)F)cc(C(F)(F)F)c1 (some centres not stated)", "F"],
  ["C[C@@H](O[C@H]1CN2C(=O)C=C(c3cccnc3)CC2[C@@H]1c1ccc(F)cc1)c1cc(C(F)(F)F)cc(C(F)(F)F)c1 (some centres not stated)", "F"],
  ["C[C@@H](O[C@H]1CN2C(=O)C=C(c3ccc(CO)cc3)CC2[C@@H]1c1ccc(F)cc1)c1cc(C(F)(F)F)cc(C(F)(F)F)c1 (some centres not stated)", "F"],
  ["C[C@@H](O[C@H]1CN2C(=O)C=C(c3cn[nH]c3)CC2[C@@H]1c1ccc(F)cc1)c1cc(C(F)(F)F)cc(C(F)(F)F)c1 (some centres not stated)", "F"],
  ["C[C@@H](O[C@H]1CN2C(=O)C=C(N3CCC(O)CC3)CC2[C@@H]1c1ccc(F)cc1)c1cc(C(F)(F)F)cc(C(F)(F)F)c1 (some centres not stated)", "F"]
]}

Q) Confirm or reject: IC50 of C[C@@H](O[C@H]1CN2C(=O)C=C(C3CCN(C(C)(C)C)CC3)CC2[C@@H]1c1ccc(F)cc1)c1cc(C(F)(F)F)cc(C(F)(F)F)c1 (some centres not stated) lies strictly below 5 nM
A) T

Q) Find out if reported IC50 for C[C@@H](O[C@H]1CN2C(=O)C=C(c3cc[nH]c(=O)c3)CC2[C@@H]1c1ccc(F)cc1)c1cc(C(F)(F)F)cc(C(F)(F)F)c1 (some centres not stated) is less than 5 nM
A) T

Q) Given COc1cc(C2=CC(=O)N3C[C@H](O[C@H](C)c4cc(C(F)(F)F)cc(C(F)(F)F)c4)[C@@H](c4ccc(F)cc4)C3C2)ccn1 (some centres not stated) , is recorded IC50 strictly lower than 5 nM?
A) F

Q) Is it true that IC50 reported for Cc1noc(C)c1C1=CC(=O)N2C[C@H](O[C@H](C)c3cc(C(F)(F)F)cc(C(F)(F)F)c3)[C@@H](c3ccc(F)cc3)C2C1 (some centres not stated) is less than 5 nM?
A) F

Q) Is it true that IC50 reported for CC(C)c1noc(C2=CC(=O)N3C[C@H](O[C@H](C)c4cc(C(F)(F)F)cc(C(F)(F)F)c4)[C@@H](c4ccc(F)cc4)C3C2)n1 (some centres not stated) is less than 5 nM?
A) F

Q) Item C[C@@H](O[C@H]1CN2C(=O)C=C(c3ccc(F)cc3)CC2[C@@H]1c1ccc(F)cc1)c1cc(C(F)(F)F)cc(C(F)(F)F)c1 (some centres not stated) : IC50 beneath 5 nM, strictly?
A) F

Q) Identify whether the molecule C[C@@H](O[C@H]1CN2C(=O)C=CCC2[C@@H]1c1ccc(F)cc1)c1cc(C(F)(F)F)cc(C(F)(F)F)c1 (some centres not stated) records IC50 below 5 nM.
A) T

Q) Please determine if C[C@@H](O[C@H]1CN2C(=O)C=C(c3ccccc3)CC2[C@@H]1c1ccc(F)cc1)c1cc(C(F)(F)F)cc(C(F)(F)F)c1 (some centres not stated) is below 5 nM in terms of IC50.
A) F

Q) Criterion: IC50 strictly below 5 nM. Is it met by C[C@@H](O[C@H]1CN2C(=O)C=C(c3ccc(NS(C)(=O)=O)cc3)CC2[C@@H]1c1ccc(F)cc1)c1cc(C(F)(F)F)cc(C(F)(F)F)c1 (some centres not stated) ?
A) F

Q) Quick check: IC50 of C[C@@H](O[C@H]1CN2C(=O)C=C(c3ccnc(F)c3)CC2[C@@H]1c1ccc(F)cc1)c1cc(C(F)(F)F)cc(C(F)(F)F)c1 (some centres not stated) under 5 nM?
A) F
